# Test system: Plasmodium berghei
# method summary: Screen against P. berghei liver stage (PbLuc), transformed with Luciferase, at 10uM
# Type: functional, HepG2
# test context: tested at 10 uM
About 8,600 (12%) of roughly 69,000 compounds showed an effect of 50% or more. Many of the other results were omitted from the sample, so strong results are more common in it than they were.
Entries and their INHIBITION
value type: INHIBITION (%)

>>> readout_value("Cc1cc(C)nc(N2CCN(Cc3nccn3C)CC2)n1")
7.52
>>> readout_value("CC(C)NC(=O)N1CCC2(CC(=O)N(c3ccccc3)C2)C1 (stereo unspecified)")
28.4
>>> readout_value("Cc1ccc(CNC(=O)c2ccc(=O)n(C)n2)c(OC2CCCC2)c1")
5.91
>>> readout_value("COCCC(=O)N1CCC2(CCCN2Cc2cccc(Cl)c2)C1 (stereo unspecified)")
47.9
>>> readout_value("O=C(C1CCCC1)N1CC2(CCN(C3COC3)C2)OCc2ccccc21 (stereo unspecified)")
53.2
>>> readout_value("CCS(=O)(=O)N1CCCC2(CCCN2Cc2cccc(Cl)c2)C1 (stereo unspecified)")
-14.3
>>> readout_value("Cc1cc(C(F)(F)F)nc(N2CCN(Cc3nccn3C)CC2)n1")
74
>>> readout_value("Cn1cc(-c2ncc3c(c2C(=O)O)CCN(CC2CC2)C3)cn1")
46.6
>>> readout_value("Cc1cc(C2CCC2)nc(N2CC(n3cccn3)C2)n1")
-9.91
>>> readout_value("O=C(COC1CCCC1)NCCc1nc(-c2ccccn2)cs1")
30.8
>>> readout_value("O=C(C1CCCC1)N1CC2(CCCN(C3COC3)C2)Cc2ccccc21 (stereo unspecified)")
-0.621
